Target: T1, CSP C-terminal peptide 282-383 (Plasmodium falciparum)
T1 construct: Coated at 1 ug/ml in ELISA; also called C-terminus of CSP
Assay: ELISA, C-terminal peptide 282-383 coated at 1 ug/ml

binder	binding result
MGU8 (antibody, V domains shown) VH: QVQLVESGGGVVQPGRSLRLSCAAGGFTFSNYGMHWVRQAPGKGLEWVALIWHDGTNKFYADSVKGRFTISRDNSKNTLSLQMDSLTTEDTAIYFCTKRGGWGDGSDIWGQGTMVTVSS VL: DIQMTQSPSSLSASVGDRVTITCQASQDVDNYLNWYQHKPGKAPKLLIYDASNLATGVPSRFSGSGSSTDFTLTISSLQSDDFATYYCQQQRIFGGGTRVEIK	no binding
MGH2 (antibody, V domains shown) VH: QVQLVESGGGVVQPGGSLRLSCTASGFSFSSYAMHWVRQAPGKGLEWVAYTRYDGSNKFYLDSVQGRFTISRDNSKNTLYLEMDSLRLEDTAVYFCAKVGDGTVAGTIDYWGQGTLVTVSS VL: YIVMTQSPLSLPVTLGQPASISCRSSQSLVYSDGNTYLNWYQQRPGQSPRRLIYKVSNRDSGVPDRFSGSGSGTDFTLKISRVEAEDVGVYYCMQGTHWWTFGQGTKVEIK	no binding
MGU11 (antibody, V domains shown) VH: QVQLVESGGGVVQPGRSLRLSCVASGFSFSSYGMHWVRQAPGKGLEWVAVIWYDGTNKYYADSVKGRFTISRDNTKNTLYLQMNSLRADDTAMYYCANDIAGWGYDGSNAWGQGTLVTVSS VL: LSLPVTPGQPASISCKSSQSLVYSDGNTYLNWFQQRPGQSPRRLIYKVSNRDSGVPDRFSGSGSGTDFTLKISRVEAEDVGVYYCMQGTVGFTFGPGTTVDIK	no binding
